As shown below, each of these compounds has a reported solubility value.
- METHOD_NOTES: Solubility at pH 7.4
- Assay type: physicochemical
- COND: buffer

# MOL, solubility
records = [
    ("CCOC(=O)CCC(=O)NS(=O)(=O)c1ccc(Nc2nc(N)n(C(=O)c3c(F)cccc3F)n2)cc1", "210 µg/mL"),
    ("Nc1nc(Nc2ccc(S(=O)(=O)NC(=O)[C@H](N)CO)cc2)nn1C(=O)c1c(F)cccc1F", "> 1000 µg/mL"),
    ("Nc1nc(Nc2ccc(S(=O)(=O)NC(=O)CCN3CCOCC3)cc2)nn1C(=O)c1c(F)cccc1F", "4.7 µg/mL"),
    ("NCC(=O)NS(=O)(=O)c1ccc(Nc2nc(N)n(C(=O)c3c(F)cccc3F)n2)cc1", "200 µg/mL"),
    ("CN1CCN(CCC(=O)NS(=O)(=O)c2ccc(Nc3nc(N)n(C(=O)c4c(F)cccc4F)n3)cc2)CC1", "820 µg/mL"),
    ("Nc1nc(Nc2ccc(S(=O)(=O)NC(=O)CCC(=O)O)cc2)nn1C(=O)c1c(F)cccc1F", "> 1000 µg/mL"),
    ("COCCOCC(=O)NS(=O)(=O)c1ccc(Nc2nc(N)n(C(=O)c3c(F)cccc3F)n2)cc1", "> 1000 µg/mL"),
]

====

- Tested on: Rattus norvegicus
- METHOD_NOTES: Conversion of prodrug to parent in rat at 3 mg/kg, iv [100*AUC (JNJ-7706621) / AUC (prodrug)]
- Type: ADME, organism-based
- Design: dose 3 mg/kg, route intravenous
- COND: in vivo

# MOL, Activity [%]
data = [
    ("Nc1nc(Nc2ccc(S(=O)(=O)NC(=O)CCN3CCOCC3)cc2)nn1C(=O)c1c(F)cccc1F", 7),
    ("CCOC(=O)CCC(=O)NS(=O)(=O)c1ccc(Nc2nc(N)n(C(=O)c3c(F)cccc3F)n2)cc1", 40),
    ("Nc1nc(Nc2ccc(S(=O)(=O)NC(=O)CCC(=O)O)cc2)nn1C(=O)c1c(F)cccc1F", 38),
    ("Nc1nc(Nc2ccc(S(=O)(=O)NC(=O)[C@H](N)CO)cc2)nn1C(=O)c1c(F)cccc1F", 8),
    ("CN1CCN(CCC(=O)NS(=O)(=O)c2ccc(Nc3nc(N)n(C(=O)c4c(F)cccc4F)n3)cc2)CC1", 4),
    ("COCCOCC(=O)NS(=O)(=O)c1ccc(Nc2nc(N)n(C(=O)c3c(F)cccc3F)n2)cc1", 18),
    ("NCC(=O)NS(=O)(=O)c1ccc(Nc2nc(N)n(C(=O)c3c(F)cccc3F)n2)cc1", 31),
]

====

As shown below, each of these molecules has a reported pIC50 value.
- Test system: HCT-116
- METHOD_NOTES: Antiproliferative activity against human HCT116 cells
- Assay type: functional, cell-based
pIC50: −log10 of the molar value.
RESULT_TYPE: pIC50

# MOL, RELATION_QUALIFIER, OBSERVED_VALUE
measured = [
    ("CCOC(=O)CCC(=O)NS(=O)(=O)c1ccc(Nc2nc(N)n(C(=O)c3c(F)cccc3F)n2)cc1", "=", 4.40),
    ("CN1CCN(CCC(=O)NS(=O)(=O)c2ccc(Nc3nc(N)n(C(=O)c4c(F)cccc4F)n3)cc2)CC1", "<", 5.00),
    ("Nc1nc(Nc2ccc(S(=O)(=O)NC(=O)[C@H](N)CO)cc2)nn1C(=O)c1c(F)cccc1F", "=", 4.15),
    ("Nc1nc(Nc2ccc(S(=O)(=O)NC(=O)CCC(=O)O)cc2)nn1C(=O)c1c(F)cccc1F", "<", 4.00),
]

====

- Tested on: Rattus norvegicus
- METHOD_NOTES: AUC in rat after administration as its prodrug ethyl 4-(4-(5-amino-1-(2,6-difluorobenzoyl)-1H-1,2,4-triazol-3-ylamino)phenylsulfonamido)-4-oxobutanoate at 3 mg/kg, iv
- Type: ADME, organism-based, Plasma
- Design: dose 3 mg/kg, route intravenous
- COND: in vivo

# MOL, AUC / µM·h
measured = [
    ("Nc1nc(Nc2ccc(S(N)(=O)=O)cc2)nn1C(=O)c1c(F)cccc1F", 29.1),
]

====

- METHOD_NOTES: Oral bioavailability in nude mice
- Type: ADME, organism-based
- COND: mouse, in vivo
RESULT_TYPE: bioavailability (%)

# MOL, OBSERVED_VALUE
records = [
    ("Nc1nc(Nc2ccc(S(N)(=O)=O)cc2)nn1C(=O)c1c(F)cccc1F", 2),
]
